Tested on: 361931-004-R-J1-PDC multicell spheroid viability
testDetails: Anticancer human tumor 361931-004-R-J1-PDC patient-derived colon adenocarcinoma cell line growth inhibition [PI3K]
conditions: second compound 0.01 µM; first compound 0.0316 µM; stronger effect = lower value
Listed here are compounds together with their documented viability, T/C.

compound | viability, T/C / %
CNC(=O)c1ccc(N2C(=S)N(c3ccc(C#N)c(C(F)(F)F)c3)C(=O)C2(C)C)cc1F + CC(Nc1ccc2c(c1)OCCn1cc(N3C(=O)OCC3C(F)F)nc1-2)C(N)=O | 109
Cn1ncnc1[C@H]1c2n[nH]c(=O)c3cc(F)cc(c23)N[C@@H]1c1ccc(F)cc1 + CC(Nc1ccc2c(c1)OCCn1cc(N3C(=O)OCC3C(F)F)nc1-2)C(N)=O | 89.8
CC1(C)CCC(Nc2ncc(C(F)(F)F)c(-c3c[nH]c4c(P(C)(C)=O)c(C#N)ccc34)n2)CN1 (stereo unspecified) + COc1c(OCCCN2CCOCC2)ccc2c3n(c(=NC(=O)c4cnc(N)nc4)nc12)CCN3 | 92.4
CC(C)NCC(C(=O)N1CCN(c2ncnc3c2C(C)CC3O)CC1)c1ccc(Cl)cc1 (stereo unspecified) + COc1c(OCCCN2CCOCC2)ccc2c3n(c(=NC(=O)c4cnc(N)nc4)nc12)CCN3 | 99
CC1(C)CCC(Nc2ncc(C(F)(F)F)c(-c3c[nH]c4c(P(C)(C)=O)c(C#N)ccc34)n2)CN1 (stereo unspecified) + CC(Nc1ccc2c(c1)OCCn1cc(N3C(=O)OCC3C(F)F)nc1-2)C(N)=O | 84.2
C=CC(=O)N1CCN(c2nc(=O)n(-c3c(C)ccnc3C(C)C)c3nc(-c4c(O)cccc4F)c(F)cc23)C(C)C1 (stereo unspecified) + CC(Nc1ccc2c(c1)OCCn1cc(N3C(=O)OCC3C(F)F)nc1-2)C(N)=O | 107
Cn1nccc1Nc1nccc(-c2ccn(C(CO)c3ccc(Cl)c(F)c3)c(=O)c2)n1 (stereo unspecified) + COc1c(OCCCN2CCOCC2)ccc2c3n(c(=NC(=O)c4cnc(N)nc4)nc12)CCN3 | 87.9
C=CC(=O)N1CCN(c2nc(=O)n(-c3c(C)ccnc3C(C)C)c3nc(-c4c(O)cccc4F)c(F)cc23)C(C)C1 (stereo unspecified) + COc1c(OCCCN2CCOCC2)ccc2c3n(c(=NC(=O)c4cnc(N)nc4)nc12)CCN3 | 98
CCN1CCN(Cc2ccc(Nc3ncc(F)c(-c4cc(F)c5nc(C)n(C(C)C)c5c4)n3)nc2)CC1 + COc1c(OCCCN2CCOCC2)ccc2c3n(c(=NC(=O)c4cnc(N)nc4)nc12)CCN3 | 94.4
Cn1ncc(Cl)c1-c1cc(C(=O)NC(CN)Cc2cccc(F)c2)sc1Cl (stereo unspecified) + CC(Nc1ccc2c(c1)OCCn1cc(N3C(=O)OCC3C(F)F)nc1-2)C(N)=O | 99
CC1(C)CCC(CN2CCN(c3ccc(C(=O)NS(=O)(=O)c4ccc(NCC5CCOCC5)c([N+](=O)[O-])c4)c(Oc4cnc5[nH]ccc5c4)c3)CC2)=C(c2ccc(Cl)cc2)C1 + CC(Nc1ccc2c(c1)OCCn1cc(N3C(=O)OCC3C(F)F)nc1-2)C(N)=O | 93.3

###

System: 361931-004-R-J1-PDC multicell spheroid viability
testDetails: Anticancer human tumor 361931-004-R-J1-PDC cell line growth inhibition [PI3K];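 note: spheroids exposed to agents for seven days before readout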
conditions: second compound 10 µM; first compound 3.16 µM; stronger effect = lower value
Catalogue of viability, T/C values
readoutName: viability, T/C

compound | recordedMeasurement
CC(C)NCC(C(=O)N1CCN(c2ncnc3c2C(C)CC3O)CC1)c1ccc(Cl)cc1 (stereo unspecified) + CC(Nc1ncnc2nc[nH]c12)c1cc2cccc(Cl)c2c(=O)n1-c1ccccc1 | 51.5%
CC1(C)CCC(CN2CCN(c3ccc(C(=O)NS(=O)(=O)c4ccc(NCC5CCOCC5)c([N+](=O)[O-])c4)c(Oc4cnc5[nH]ccc5c4)c3)CC2)=C(c2ccc(Cl)cc2)C1 + Cc1nc(NC(=O)N2CCCC2C(N)=O)sc1-c1ccnc(C(C)(C)C(F)(F)F)c1 | 29%
C[C@@H](NC(=O)c1ncnc(N)c1Cl)c1ncc(C(=O)Nc2cc(C(F)(F)F)c(Cl)cn2)s1 + Cc1nc(NC(=O)N2CCCC2C(N)=O)sc1-c1ccnc(C(C)(C)C(F)(F)F)c1 | 22%
Cn1nccc1Nc1nccc(-c2ccn(C(CO)c3ccc(Cl)c(F)c3)c(=O)c2)n1 (stereo unspecified) + Cc1nc(NC(=O)N2CCCC2C(N)=O)sc1-c1ccnc(C(C)(C)C(F)(F)F)c1 | 4.98%
Cn1ncc(Cl)c1-c1cc(C(=O)NC(CN)Cc2cccc(F)c2)sc1Cl (stereo unspecified) + CC(Nc1ncnc2nc[nH]c12)c1cc2cccc(Cl)c2c(=O)n1-c1ccccc1 | 43%
C=CC(=O)N1CCN(c2nc(=O)n(-c3c(C)ccnc3C(C)C)c3nc(-c4c(O)cccc4F)c(F)cc23)C(C)C1 (stereo unspecified) + CC(Nc1ncnc2nc[nH]c12)c1cc2cccc(Cl)c2c(=O)n1-c1ccccc1 | 101%
CCCS(=O)(=O)Nc1ccc(F)c(C(=O)c2c[nH]c3ncc(-c4ccc(Cl)cc4)cc23)c1F + Cc1nc(NC(=O)N2CCCC2C(N)=O)sc1-c1ccnc(C(C)(C)C(F)(F)F)c1 | 30.7%
CC1(C)CCC(Nc2ncc(C(F)(F)F)c(-c3c[nH]c4c(P(C)(C)=O)c(C#N)ccc34)n2)CN1 (stereo unspecified) + Cc1nc(NC(=O)N2CCCC2C(N)=O)sc1-c1ccnc(C(C)(C)C(F)(F)F)c1 | 39.5%
CC(Cn1ccc(-c2ccc(C#N)c(Cl)c2)n1)NC(=O)c1cc(C(C)O)[nH]n1 (stereo unspecified) + Cc1nc(NC(=O)N2CCCC2C(N)=O)sc1-c1ccnc(C(C)(C)C(F)(F)F)c1 | 59.8%
CC(C)NCC(C(=O)N1CCN(c2ncnc3c2C(C)CC3O)CC1)c1ccc(Cl)cc1 (stereo unspecified) + Cc1nc(NC(=O)N2CCCC2C(N)=O)sc1-c1ccnc(C(C)(C)C(F)(F)F)c1 | 21.6%
CC(Cn1ccc(-c2ccc(C#N)c(Cl)c2)n1)NC(=O)c1cc(C(C)O)[nH]n1 (stereo unspecified) + CC(Nc1ncnc2nc[nH]c12)c1cc2cccc(Cl)c2c(=O)n1-c1ccccc1 | 109%

###

System: 361931-004-R-J1-PDC multicell spheroid viability
testDetails: Anticancer human tumor 361931-004-R-J1-PDC cell line growth inhibition [PI3K];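 note: spheroids exposed to agents for seven days before readout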
conditions: second compound 0.316 µM; first compound 0.1 µM; stronger effect = lower value
Each item that follows carries a reported viability, T/C.
readoutName: viability, T/C (%)

compound | measurementUnit | recordedMeasurement
Cn1nccc1Nc1nccc(-c2ccn(C(CO)c3ccc(Cl)c(F)c3)c(=O)c2)n1 (stereo not drawn) + CC(Nc1ccc2c(c1)OCCn1cc(N3C(=O)OCC3C(F)F)nc1-2)C(N)=O | % | 86.5
C#Cc1c(F)ccc2cc(O)cc(-c3ncc4c(N5CC6CCC(C5)N6)nc(OCC56CCCN5CC(F)C6)nc4c3F)c12 (stereo not drawn) + Cc1nc(NC(=O)N2CCCC2C(N)=O)sc1-c1ccnc(C(C)(C)C(F)(F)F)c1 | % | 86.5
C#Cc1c(F)ccc2cc(O)cc(-c3ncc4c(N5CC6CCC(C5)N6)nc(OCC56CCCN5CC(F)C6)nc4c3F)c12 (stereo not drawn) + CC(Nc1ncnc2nc[nH]c12)c1cc2cccc(Cl)c2c(=O)n1-c1ccccc1 | % | 99.7

###

Tested on: 361931-004-R-J1-PDC multicell spheroid viability
testDetails: Anticancer human tumor 361931-004-R-J1-PDC cell line growth inhibition [PI3K];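 note: spheroids exposed to agents for seven days before readout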
conditions: second compound 0.01 µM; first compound 0.1 µM; stronger effect = lower value
readoutName: viability, T/C

compound | recordedMeasurement
CCCS(=O)(=O)Nc1ccc(F)c(C(=O)c2c[nH]c3ncc(-c4ccc(Cl)cc4)cc23)c1F + COc1c(OCCCN2CCOCC2)ccc2c3n(c(=NC(=O)c4cnc(N)nc4)nc12)CCN3 | 93.1%
CCCS(=O)(=O)Nc1ccc(F)c(C(=O)c2c[nH]c3ncc(-c4ccc(Cl)cc4)cc23)c1F + CC(Nc1ccc2c(c1)OCCn1cc(N3C(=O)OCC3C(F)F)nc1-2)C(N)=O | 94.7%
CC(C)NCC(C(=O)N1CCN(c2ncnc3c2C(C)CC3O)CC1)c1ccc(Cl)cc1 (stereo not given) + CC(Nc1ccc2c(c1)OCCn1cc(N3C(=O)OCC3C(F)F)nc1-2)C(N)=O | 92.9%
CCN1CCN(Cc2ccc(Nc3ncc(F)c(-c4cc(F)c5nc(C)n(C(C)C)c5c4)n3)nc2)CC1 + CC(Nc1ccc2c(c1)OCCn1cc(N3C(=O)OCC3C(F)F)nc1-2)C(N)=O | 81.4%
CC(Cn1ccc(-c2ccc(C#N)c(Cl)c2)n1)NC(=O)c1cc(C(C)O)[nH]n1 (stereo not given) + COc1c(OCCCN2CCOCC2)ccc2c3n(c(=NC(=O)c4cnc(N)nc4)nc12)CCN3 | 102%
